Assignment: determine reported inhibition for the given molecules.
target: Ephrin type-B receptor 2 (Homo sapiens) (UniProt P29323); conditions: at 0.1 µM;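 further: reported as mean inhibition of EPHB2, from the GSK PKIS dataset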
Sequence (P29323 whole entry): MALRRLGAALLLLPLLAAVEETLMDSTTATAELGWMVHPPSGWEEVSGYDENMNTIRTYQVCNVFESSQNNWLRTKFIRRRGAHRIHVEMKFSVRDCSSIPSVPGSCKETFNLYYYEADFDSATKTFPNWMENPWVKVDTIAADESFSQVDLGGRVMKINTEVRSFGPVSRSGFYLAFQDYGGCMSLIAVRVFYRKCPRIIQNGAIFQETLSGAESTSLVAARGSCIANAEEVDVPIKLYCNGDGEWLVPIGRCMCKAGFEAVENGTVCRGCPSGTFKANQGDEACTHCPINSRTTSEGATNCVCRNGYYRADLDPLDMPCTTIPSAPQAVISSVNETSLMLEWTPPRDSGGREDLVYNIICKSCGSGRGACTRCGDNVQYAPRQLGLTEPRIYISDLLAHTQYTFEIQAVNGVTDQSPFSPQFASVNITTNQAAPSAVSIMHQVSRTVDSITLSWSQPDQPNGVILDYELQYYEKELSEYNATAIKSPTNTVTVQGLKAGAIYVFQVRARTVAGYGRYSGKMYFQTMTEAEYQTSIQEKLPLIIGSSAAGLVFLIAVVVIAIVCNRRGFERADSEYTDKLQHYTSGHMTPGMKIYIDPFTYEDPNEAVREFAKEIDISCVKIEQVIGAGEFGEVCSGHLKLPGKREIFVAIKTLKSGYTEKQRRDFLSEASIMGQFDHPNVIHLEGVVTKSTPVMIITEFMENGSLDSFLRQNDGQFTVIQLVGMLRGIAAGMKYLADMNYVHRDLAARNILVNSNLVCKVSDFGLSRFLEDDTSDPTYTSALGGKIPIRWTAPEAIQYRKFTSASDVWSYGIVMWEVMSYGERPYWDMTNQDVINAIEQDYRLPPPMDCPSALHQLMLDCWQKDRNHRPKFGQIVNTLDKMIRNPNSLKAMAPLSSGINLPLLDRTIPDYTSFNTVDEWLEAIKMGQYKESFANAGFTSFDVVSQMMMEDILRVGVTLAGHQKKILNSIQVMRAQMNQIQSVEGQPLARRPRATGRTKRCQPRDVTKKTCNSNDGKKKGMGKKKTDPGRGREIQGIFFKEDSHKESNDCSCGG
Entry rule: numbers only, all in %.

Request: // query inhibition value for entry COc1cc2ncn(-c3cc(OCCc4ccccc4)c(C(N)=O)s3)c2cc1OC
Response: 3.87

Request: // query inhibition value for entry Fc1ccc(-c2ncn(C3CCNCC3)c2-c2ccnc(Oc3ccc(Oc4ccccc4)cc3)n2)cc1
Response: 7.52

Request: // query inhibition value for entry c1ccc(Oc2ccc(Nc3ncc(-c4ccccc4)o3)cc2)cc1
Response: 7.5

Request: // query inhibition value for entry CCC(=O)Nc1ccc(C)c(-c2ccc(C(=O)NCC3CC3)cc2)c1
Response: 6.82

Request: // query inhibition value for entry NC(=O)Cc1ccccc1Oc1nccc(-c2c(-c3ccc(F)cc3)ncn2C2CCNCC2)n1
Response: 6.12

Request: // query inhibition value for entry COc1cccc(-n2cnc3c(N/N=C/c4ccncc4)ncnc32)c1
Response: 2.42

Request: // query inhibition value for entry Clc1ccc(CNc2nccc(-c3cnn4ncccc34)n2)cc1
Response: 7.93

Request: // query inhibition value for entry c1ccc(-c2n[nH]cc2-c2ccnc(-c3ccc(OCCN4CCOCC4)cc3)c2)nc1
Response: 0.38

Request: // query inhibition value for entry COc1cc(Nc2ncc(-c3ccccc3)o2)cc(OC)c1OC
Response: -1.44

Request: // query inhibition value for entry COc1ccc(C2=C(N3CCc4ccccc43)C(=O)NC2=O)cc1
Response: 11

Request: // query inhibition value for entry CCc1ccc(Oc2nccc(-c3c(-c4ccc(F)cc4)ncn3C3CCNCC3)n2)cc1
Response: 4.76

Request: // query inhibition value for entry CN(C)CCOc1ccc(-c2cc(-c3ccc4c(c3)CCC4=NO)c(-c3ccncc3)o2)cc1
Response: -5.39

Request: // query inhibition value for entry CCS(=O)(=O)c1ccc(OC)c(Nc2ncc(-c3cccc(-c4ccccc4F)c3)o2)c1
Response: 5.91

Request: // query inhibition value for entry Cc1nnc(-c2ccc(C)c(-c3ccc(C(=O)NCc4ccc(Cl)cc4)cc3)c2)o1
Response: 2.73

Request: // query inhibition value for entry Fc1ccc(-c2nc3n(c2-c2ccncc2)CCS3)cc1
Response: 3.72

Request: // query inhibition value for entry CCc1cccc(CC)c1/C=C/c1cncc(C(=O)NC)c1
Response: 7.22

Request: // query inhibition value for entry CN(C)CCCNc1nccc(-c2c(-c3ccc(F)cc3)nn3cc(C(F)(F)F)ccc23)n1
Response: 8.88

Request: // query inhibition value for entry C#Cc1cccc(Nc2ncnc3ccc(OCCCCNCCS(C)(=O)=O)cc23)c1
Response: 10.3

Request: // query inhibition value for entry NS(=O)(=O)c1ccc(N/N=C2\C(=O)Nc3ccc(-c4cnco4)cc32)cc1
Response: 6.73

Request: // query inhibition value for entry O=C(Nc1n[nH]c2cc(-c3ccccc3)ccc12)C1CC1
Response: 6.68

Request: // query inhibition value for entry Cc1ccc(NC(=O)c2ccoc2)cc1-c1ccc(C(=O)NCC2CC2)cc1
Response: 2.46

Request: // query inhibition value for entry COc1cccc(/C=N/Nc2ncnc3c2cnn3-c2cccc(OC)c2)c1
Response: 8.19

Request: // query inhibition value for entry NC(=O)c1cc(-c2ccc(F)cc2)cc(-c2ccncc2)c1N
Response: 5.78

---

Assignment: determine reported inhibition for the given compounds.
target: Tyrosine-protein kinase ZAP-70 (Homo sapiens) (UniProt P43403); settings: at 0.1 µM;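 further: values are mean percent inhibition of ZAP-70 kinase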
Sequence (P43403 whole entry): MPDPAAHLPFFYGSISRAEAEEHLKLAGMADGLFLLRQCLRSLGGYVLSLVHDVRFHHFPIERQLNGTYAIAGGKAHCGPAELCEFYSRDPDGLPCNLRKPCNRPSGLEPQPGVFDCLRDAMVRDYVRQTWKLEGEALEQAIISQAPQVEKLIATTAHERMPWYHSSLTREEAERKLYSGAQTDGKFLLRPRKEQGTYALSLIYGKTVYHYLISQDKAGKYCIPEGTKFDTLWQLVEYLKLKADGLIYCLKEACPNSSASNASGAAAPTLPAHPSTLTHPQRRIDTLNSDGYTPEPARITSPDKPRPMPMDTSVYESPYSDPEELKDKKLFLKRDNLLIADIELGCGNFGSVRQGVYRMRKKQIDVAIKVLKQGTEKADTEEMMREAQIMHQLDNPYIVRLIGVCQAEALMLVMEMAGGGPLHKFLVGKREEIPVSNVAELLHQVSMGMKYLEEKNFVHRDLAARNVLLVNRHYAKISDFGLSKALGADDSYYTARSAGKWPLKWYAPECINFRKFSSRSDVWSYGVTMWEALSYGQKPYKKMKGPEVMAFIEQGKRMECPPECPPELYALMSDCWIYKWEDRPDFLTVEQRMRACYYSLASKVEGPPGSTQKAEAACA
Entry rule: numbers only, all in %.

Request: // query inhibition value for entry C[C@@H](Oc1cc(-n2cnc3ccc(OCC4CCN(C)CC4)cc32)sc1C(N)=O)c1ccccc1Cl
Response: 4.61

Request: // query inhibition value for entry Nc1nccc(-c2c(-c3ccc(F)cc3)ncn2C2CCC(O)CC2)n1 (stereo not given)
Response: -8.32

Request: // query inhibition value for entry FC(F)(F)c1cccc(Nc2nccc(-c3cnn4nc(-c5ccccc5)ccc34)n2)c1
Response: 0.98

Request: // query inhibition value for entry CCS(=O)(=O)c1ccc(OC)c(Nc2ncc(-c3ccccc3Cl)o2)c1
Response: 2.78

Request: // query inhibition value for entry Cc1ccc(C(=O)NC2CCC2)cc1-c1ccc(C(=O)NCC2CC2)cc1
Response: 3.05

Request: // query inhibition value for entry COc1cc(Nc2ncc3c(C)nc(-c4cccc(Oc5ccccc5)c4)n3n2)cc(OC)c1OC
Response: 1.87

Request: // query inhibition value for entry Fc1ccc(-c2ncn(C3CCNCC3)c2-c2ccnc(Oc3ccc(F)c(F)c3)n2)cc1
Response: -5.04

Request: // query inhibition value for entry CCS(=O)(=O)c1ccc(OC)c(Nc2ncc(-c3cccc(-c4ccccc4F)c3)o2)c1
Response: 1.06

Request: // query inhibition value for entry COc1cc(Nc2ncc3c(C)nc(-c4cccc(C(F)(F)F)c4)n3n2)cc(OC)c1OC
Response: 1.78

Request: // query inhibition value for entry CCN(CC)Cc1ccc(Nc2nccc(-c3cnn4ncccc34)n2)cc1
Response: -3.68

---

Assignment: determine reported inhibition for the given compounds.
test system: Mast/stem cell growth factor receptor Kit (Homo sapiens), P10721 [V560G]; details: at 1 µM
Sequence (P10721 whole entry V560G): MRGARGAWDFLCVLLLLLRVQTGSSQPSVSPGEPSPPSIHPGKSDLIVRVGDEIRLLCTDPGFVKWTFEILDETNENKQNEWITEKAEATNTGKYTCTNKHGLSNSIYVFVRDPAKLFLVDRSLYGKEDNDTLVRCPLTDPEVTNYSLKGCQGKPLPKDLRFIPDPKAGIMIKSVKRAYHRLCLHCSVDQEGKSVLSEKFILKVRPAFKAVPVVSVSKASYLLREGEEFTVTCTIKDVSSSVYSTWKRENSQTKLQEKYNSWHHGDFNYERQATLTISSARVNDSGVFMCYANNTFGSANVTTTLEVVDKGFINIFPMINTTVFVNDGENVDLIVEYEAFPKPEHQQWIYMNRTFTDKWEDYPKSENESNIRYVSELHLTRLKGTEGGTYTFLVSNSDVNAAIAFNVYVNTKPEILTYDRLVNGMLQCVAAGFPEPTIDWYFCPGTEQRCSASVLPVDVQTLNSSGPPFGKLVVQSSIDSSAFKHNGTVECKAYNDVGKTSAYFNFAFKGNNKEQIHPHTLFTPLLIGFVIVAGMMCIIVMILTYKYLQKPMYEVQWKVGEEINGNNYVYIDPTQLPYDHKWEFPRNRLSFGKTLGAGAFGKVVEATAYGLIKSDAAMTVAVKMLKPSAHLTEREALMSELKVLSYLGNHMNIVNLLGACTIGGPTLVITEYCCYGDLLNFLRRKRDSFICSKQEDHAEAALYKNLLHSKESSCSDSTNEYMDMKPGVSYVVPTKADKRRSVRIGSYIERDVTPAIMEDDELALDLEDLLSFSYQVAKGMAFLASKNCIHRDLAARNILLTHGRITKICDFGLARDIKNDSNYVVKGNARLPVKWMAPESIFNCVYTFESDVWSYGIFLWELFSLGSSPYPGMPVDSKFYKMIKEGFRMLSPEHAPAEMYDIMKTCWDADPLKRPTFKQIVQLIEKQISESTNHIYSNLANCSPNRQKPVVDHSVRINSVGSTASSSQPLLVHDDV

Request: Give the reported inhibition for CCS(=O)(=O)c1ccc(OC)c(Nc2ncc(-c3ccccc3Cl)o2)c1 (system: Mast/stem cell growth factor receptor Kit (Homo sapiens), P10721 [V560G]).
Response: 8.88%

Request: Give the reported inhibition for Cc1ccc(NC(=O)c2ccoc2)cc1-c1ccc(C(=O)NCC2CC2)cc1 (system: Mast/stem cell growth factor receptor Kit (Homo sapiens), P10721 [V560G]).
Response: -1.21%

Request: Give the reported inhibition for C[C@@H](Oc1cc(-n2cnc3ccc(OCC4CCN(C)CC4)cc32)sc1C(N)=O)c1ccccc1Cl (system: Mast/stem cell growth factor receptor Kit (Homo sapiens), P10721 [V560G]).
Response: 0.38%

Request: Give the reported inhibition for COc1cccc(/C=N/Nc2ncnc3c2cnn3-c2cccc(OC)c2)c1 (system: Mast/stem cell growth factor receptor Kit (Homo sapiens), P10721 [V560G]).
Response: 0.61%

Request: Give the reported inhibition for O=C(Nc1n[nH]c2cc(-c3ccccc3)ccc12)C1CC1 (system: Mast/stem cell growth factor receptor Kit (Homo sapiens), P10721 [V560G]).
Response: 3.87%

---

Assignment: determine reported inhibition for the given compounds.
Target: Serine/threonine-protein kinase Nek1 (Homo sapiens);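 further: mean percent inhibition of NEK1 kinase, from the GSK PKIS (published kinase inhibitor set) screening panel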
Sequence (whole entry): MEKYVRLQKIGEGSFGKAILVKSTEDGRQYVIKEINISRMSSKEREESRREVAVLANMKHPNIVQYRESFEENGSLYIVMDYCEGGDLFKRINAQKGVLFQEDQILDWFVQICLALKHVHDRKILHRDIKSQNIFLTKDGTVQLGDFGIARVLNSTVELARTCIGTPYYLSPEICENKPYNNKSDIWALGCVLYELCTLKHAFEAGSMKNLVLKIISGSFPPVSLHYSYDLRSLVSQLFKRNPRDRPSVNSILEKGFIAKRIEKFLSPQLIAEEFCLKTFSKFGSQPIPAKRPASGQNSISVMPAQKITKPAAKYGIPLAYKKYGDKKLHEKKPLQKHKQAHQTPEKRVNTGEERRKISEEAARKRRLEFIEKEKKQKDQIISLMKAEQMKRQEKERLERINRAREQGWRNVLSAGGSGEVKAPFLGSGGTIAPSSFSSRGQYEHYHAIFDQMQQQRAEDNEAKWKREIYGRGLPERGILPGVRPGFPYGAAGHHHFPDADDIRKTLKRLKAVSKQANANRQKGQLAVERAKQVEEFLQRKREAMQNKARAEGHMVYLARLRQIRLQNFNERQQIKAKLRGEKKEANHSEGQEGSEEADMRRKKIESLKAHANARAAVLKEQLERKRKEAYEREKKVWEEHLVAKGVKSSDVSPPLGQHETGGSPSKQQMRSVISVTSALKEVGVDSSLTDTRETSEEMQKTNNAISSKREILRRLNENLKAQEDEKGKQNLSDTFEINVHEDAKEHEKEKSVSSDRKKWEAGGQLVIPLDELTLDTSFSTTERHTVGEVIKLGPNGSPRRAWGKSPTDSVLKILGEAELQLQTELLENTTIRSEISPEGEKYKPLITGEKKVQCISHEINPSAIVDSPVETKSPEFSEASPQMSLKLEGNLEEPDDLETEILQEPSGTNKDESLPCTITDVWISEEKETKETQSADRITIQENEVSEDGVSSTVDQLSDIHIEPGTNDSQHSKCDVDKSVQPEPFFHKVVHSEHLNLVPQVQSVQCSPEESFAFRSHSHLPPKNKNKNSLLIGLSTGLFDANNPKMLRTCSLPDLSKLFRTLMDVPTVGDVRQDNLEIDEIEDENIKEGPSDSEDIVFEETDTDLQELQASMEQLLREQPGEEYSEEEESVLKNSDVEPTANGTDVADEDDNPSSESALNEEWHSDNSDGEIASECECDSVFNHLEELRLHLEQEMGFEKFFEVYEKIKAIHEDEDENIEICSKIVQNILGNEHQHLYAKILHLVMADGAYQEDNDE
Details: at 0.1 µM
Entry rule: numbers only, all in %.

Request: // query inhibition value for entry Fc1ccc(-c2ncn(CCCN3CCOCC3)c2-c2ccncc2)cc1
Response: 0.93

Request: // query inhibition value for entry COc1cccc(/C=N/Nc2ncnc3c2cnn3-c2cccc(OC)c2)c1
Response: 1.81

Request: // query inhibition value for entry CNC(=O)c1cncc(/C=C/c2c(C)cccc2C)c1
Response: -0.56

Request: // query inhibition value for entry COc1cc(Nc2ncc3c(C)nc(-c4cccc(C(F)(F)F)c4)n3n2)cc(OC)c1OC
Response: 4.76

Request: // query inhibition value for entry CN(C)CCCNc1nccc(-c2c(-c3ccc(F)cc3)nn3cc(C(F)(F)F)ccc23)n1
Response: 2.23

Request: // query inhibition value for entry COc1cc2ncn(-c3cc(OCc4cccs4)c(C(N)=O)s3)c2cc1OC
Response: 3.32
